Reference for the values: ChEMBL document CHEMBL1921736

- procedureText: Inhibition of diphenolase activity of banana tyrosinase using catechol as substrate by spectrophotometry
- Set-up: species or system Musa acuminata
Returns: string. Value is MET if measured IC50 is below 200 nM, and NOT MET if it is greater than or equal to it.

These solved cases illustrate the format of a correct answer.
• O=C(Nc1ccc(F)cc1)Nc1ccc(/C=C/C(=O)c2ccccc2)cc1 = MET
• Cc1ccc(NC(=O)Nc2ccc(/C=C/C(=O)c3ccccc3)cc2)cc1 = NOT MET
• Cc1ccc(NC(=O)Nc2ccc(/C=C/C(=O)c3ccc(Cl)cc3)cc2)cc1 = NOT MET
• COc1ccc(C(=O)/C=C/c2ccc(NC(=O)Nc3ccc(C)cc3)cc2)cc1 = NOT MET

input: Is IC50 strictly under 200 nM for the entry `O=C(Nc1ccc(F)cc1)Nc1ccc(/C=C/C(=O)c2ccc(Cl)cc2)cc1` ?
output: MET

* * *

Entries annotated with measured pIC50
- procedureText: Inhibition of diphenolase activity of banana tyrosinase using catechol as substrate by spectrophotometry
- Set-up: species or system Musa acuminata
Keep in mind that pIC50 stands for -log10 of concentration in molar terms.

- O=C(Nc1ccccc1)Nc1ccc(/C=C/C(=O)c2ccccc2)cc1: 6.76
- COc1cccc(NC(=O)Nc2ccc(/C=C/C(=O)c3ccc(Cl)cc3)cc2)c1: 6.82
- Cc1ccc(C(=O)/C=C/c2ccc(NC(=O)Nc3ccc(F)cc3)cc2)cc1: 6.66
- COc1cccc(NC(=O)Nc2ccc(/C=C/C(=O)c3ccccc3)cc2)c1: 6.61

Kindly review the next molecule as well.
Entry under test: `Cc1ccc(NC(=O)Nc2ccc(/C=C/C(=O)c3ccc(C)cc3)cc2)cc1` . Its pIC50 was 6.87
